meta.source: patent US9107964B2

# System: EMT6 tumor-bearing model mice
# method notes: Biodistribution in tumor and organs of tumor-bearing mouse (Example 14)
# Format: in vivo, mouse (Balb/c nu/nu)
# particulars: 120 minutes after administration, mean
Can you tell me Small intestine for the items I'm about to list?
Give bare numbers, in % ID/g.

molecule: O=[N+]([O-])c1nccn1CCC(CO)(CO)C[18F]
Small intestine (% ID/g): 3.66

molecule: O=[N+]([O-])c1nc(CO)cn1CC(CO)(CO)C[18F]
Small intestine (% ID/g): 1.63

molecule: O=[N+]([O-])c1nccn1CC(CO)(CO)C[18F]
Small intestine (% ID/g): 2.78

# evaluate next
Q: What is its Small intestine for EMT6 tumor-bearing model mice? Entry: O=[N+]([O-])c1nccn1CC(O)C[18F] (stereo not shown) [[^18F]FMISO, [^18F]fluoromisonidazole, reference compound]
Result: 4.63
